Measured zone of inhibition at 1000 µg/mL values are reported for all entries that follow.
tested on: Staphylococcus epidermidis (RCMB 0100183); experiment: Inhibition zone, agar cup diffusion; conditions: RCMB0100183, 24 h, read-out: inhibition zones (IZ) S. epidermidis

| GIVEN_SMILES | zone of inhibition at 1000 µg/mL |
| --- | --- |
| NS(=O)(=O)c1ccc(/N=N/c2ccc(O)c(C(=O)N3CCOCC3)c2)cc1 | 32 mm |
| CCCCNC(=O)c1cc(/N=N/c2ccc(S(=O)(=O)Nc3nccc(C)n3)cc2)ccc1O | 32 mm |
| Cc1ccnc(NS(=O)(=O)c2ccc(/N=N/c3ccc(O)c(C(=O)N4CCOCC4)c3)cc2)n1 | 35 mm |
| O=C(c1cc(/N=N/c2ccc(S(=O)(=O)Nc3ncccn3)cc2)ccc1O)N1CCCCC1 | 30 mm |

###

Measured PGE2 serum conc. of individual entries
system: PGE2; assay: Estimation of rat plasma PGE2; settings: rat, po 10 µmol/kg b.wt., 8 h after carrageenan, Mean ± SEM, n = 5
MEASURED_PROPERTY: PGE2 serum conc. (pg/mL)

| COMPOUND | MEASURED_PROPERTY | OUTPUT_UNIT | MEAS_VALUE |
| --- | --- | --- | --- |
| Cc1ccc(-c2cc(C(F)(F)F)nn2-c2ccc(S(N)(=O)=O)cc2)cc1 [Celecoxib, reference compound] | PGE2 serum conc. | pg/mL | 380.636 |
| O=C(O)Cc1ccccc1Nc1c(Cl)cccc1Cl [Diclofenac sodium, reference compound] | PGE2 serum conc. | pg/mL | 276.052 |
| Cc1ccnc(NS(=O)(=O)c2ccc(/N=N/c3ccc(O)c(C(=O)N4CCOCC4)c3)cc2)n1 | PGE2 serum conc. | pg/mL | 357.636 |
| O=C(c1cc(/N=N/c2ccc(S(=O)(=O)Nc3ncccn3)cc2)ccc1O)N1CCCCC1 | PGE2 serum conc. | pg/mL | 221.236 |
| CCCCNC(=O)c1cc(/N=N/c2ccc(S(=O)(=O)Nc3nccs3)cc2)ccc1O | PGE2 serum conc. | pg/mL | 452.954 |
| O=C(c1cc(/N=N/c2ccc(S(=O)(=O)Nc3ncccn3)cc2)ccc1O)N1CCOCC1 | PGE2 serum conc. | pg/mL | 591.842 |

###

test system: Shigella dysenteriae (RCMB 0100542); assay: Inhibition zone, agar cup diffusion; format: cell-based; details: RCMB0100542, 24 h, read-out: inhibition zones (IZ) S. dysenteriae
MEASURED_PROPERTY: zone of inhibition at 1000 µg/mL (mm)

| COMPOUND | SYSTEM | MEASURED_PROPERTY | MEAS_VALUE |
| --- | --- | --- | --- |
| NS(=O)(=O)c1ccc(/N=N/c2ccc(O)c(C(=O)N3CCCCC3)c2)cc1 [Compound 5h] | Shigella dysenteriae (RCMB 0100542) | zone of inhibition at 1000 µg/mL | 24 |
| Cc1ccnc(NS(=O)(=O)c2ccc(/N=N/c3ccc(O)c(C(=O)N4CCCCC4)c3)cc2)n1 [Compound 5k] | Shigella dysenteriae (RCMB 0100542) | zone of inhibition at 1000 µg/mL | 25 |
| O=C(c1cc(/N=N/c2ccc(S(=O)(=O)Nc3ncccn3)cc2)ccc1O)N1CCCCC1 [Compound 5j] | Shigella dysenteriae (RCMB 0100542) | zone of inhibition at 1000 µg/mL | 25 |
| CCCCNC(=O)c1cc(/N=N/c2ccc(S(N)(=O)=O)cc2)ccc1O [Compound 5a] | Shigella dysenteriae (RCMB 0100542) | zone of inhibition at 1000 µg/mL | 25 |
| CCCCNC(=O)c1cc(/N=N/c2ccc(S(=O)(=O)Nc3nccs3)cc2)ccc1O [Compound 5b] | Shigella dysenteriae (RCMB 0100542) | zone of inhibition at 1000 µg/mL | 22 |
| O=C(c1cc(N=Nc2ccc(S(=O)(=O)Nc3nccs3)cc2)ccc1O)N1CCOCC1 [Compound 5m] | Shigella dysenteriae (RCMB 0100542) | zone of inhibition at 1000 µg/mL | 24 |
| O=C(NCc1ccccc1)c1cc(/N=N/c2ccc(S(=O)(=O)Nc3ncccn3)cc2)ccc1O [Compound 5g] | Shigella dysenteriae (RCMB 0100542) | zone of inhibition at 1000 µg/mL | 26 |
| NS(=O)(=O)c1ccc(/N=N/c2ccc(O)c(C(=O)NCc3ccccc3)c2)cc1 [Compound 5e] | Shigella dysenteriae (RCMB 0100542) | zone of inhibition at 1000 µg/mL | 25 |
| O=C(NCc1ccccc1)c1cc(/N=N/c2ccc(S(=O)(=O)Nc3nccs3)cc2)ccc1O [Compound 5f] | Shigella dysenteriae (RCMB 0100542) | zone of inhibition at 1000 µg/mL | 25 |
| CCCCNC(=O)c1cc(/N=N/c2ccc(S(=O)(=O)Nc3ncccn3)cc2)ccc1O [Compound 5c] | Shigella dysenteriae (RCMB 0100542) | zone of inhibition at 1000 µg/mL | 25 |
| Cc1ccnc(NS(=O)(=O)c2ccc(/N=N/c3ccc(O)c(C(=O)N4CCOCC4)c3)cc2)n1 [Compound 5o] | Shigella dysenteriae (RCMB 0100542) | zone of inhibition at 1000 µg/mL | 23 |
| O=C(c1cc(/N=N/c2ccc(S(=O)(=O)Nc3ncccn3)cc2)ccc1O)N1CCOCC1 [Compound 5n] | Shigella dysenteriae (RCMB 0100542) | zone of inhibition at 1000 µg/mL | 24 |
